Below is a list of entries, each paired with its recorded RP/C value.
- Tgt: bovine serum albumin BSA (Bos taurus, UniProt P02769)
- Construct: purchased Sigma Aldrich
- Sequence (P02769 25-607): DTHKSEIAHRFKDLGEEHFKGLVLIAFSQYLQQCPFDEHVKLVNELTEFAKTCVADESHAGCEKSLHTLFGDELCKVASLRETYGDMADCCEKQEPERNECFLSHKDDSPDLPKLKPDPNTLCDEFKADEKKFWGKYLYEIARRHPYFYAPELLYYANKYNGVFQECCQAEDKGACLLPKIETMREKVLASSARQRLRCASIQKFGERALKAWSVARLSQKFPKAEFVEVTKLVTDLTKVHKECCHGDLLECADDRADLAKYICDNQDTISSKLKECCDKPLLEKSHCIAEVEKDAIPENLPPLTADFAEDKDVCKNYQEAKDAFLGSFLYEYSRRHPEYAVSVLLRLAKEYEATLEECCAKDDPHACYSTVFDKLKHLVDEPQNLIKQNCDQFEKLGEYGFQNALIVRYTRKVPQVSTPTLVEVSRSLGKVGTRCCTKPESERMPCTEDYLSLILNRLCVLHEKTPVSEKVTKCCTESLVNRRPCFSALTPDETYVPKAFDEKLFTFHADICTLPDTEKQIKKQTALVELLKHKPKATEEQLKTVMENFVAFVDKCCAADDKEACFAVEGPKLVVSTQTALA
- Assay Remarks: RP TLC on silanized RP-2 plates impregnated with bovine serum albumin
- Format: in vitro ADME
- Measurement Conditions: Rf from BSA-modified RP-2 plate / Rf from clear one (control)
Reply: number alone, nothing else.

Prompt: // returns reported RP/C for input CCC(C)n1ncn(-c2ccc(N3CCN(c4ccc(OCC5COC(Cn6cncn6)(c6ccc(Cl)cc6Cl)O5)cc4)CC3)cc2)c1=O (centres unmarked)
Response: 0.98

Prompt: Give its RP/C value. Item: CCCCN1CCCCC1C(=O)Nc1c(C)cccc1C (centres unmarked)
Response: 1.01

Prompt: Bench note: what RP/C did CCC1(c2ccccc2)C(=O)NCNC1=O show?
Response: 1.04

Prompt: Which RP/C value belongs to CC[C@@H](C(N)=O)N1CCCC1=O ?
Response: 1.00

Prompt: Form field: reported RP/C of CCOC(=O)C1=C(C)NC(C)=C(C(=O)OC)C1c1cccc([N+](=O)[O-])c1 (centres unmarked)
Response: 1.00

====

Here the recorded kHSA is given for each entry.
- Tgt: human serum albumin HSA (Homo sapiens)
- Construct: 4 × 10 mm
- Sequence (P02768 25-609): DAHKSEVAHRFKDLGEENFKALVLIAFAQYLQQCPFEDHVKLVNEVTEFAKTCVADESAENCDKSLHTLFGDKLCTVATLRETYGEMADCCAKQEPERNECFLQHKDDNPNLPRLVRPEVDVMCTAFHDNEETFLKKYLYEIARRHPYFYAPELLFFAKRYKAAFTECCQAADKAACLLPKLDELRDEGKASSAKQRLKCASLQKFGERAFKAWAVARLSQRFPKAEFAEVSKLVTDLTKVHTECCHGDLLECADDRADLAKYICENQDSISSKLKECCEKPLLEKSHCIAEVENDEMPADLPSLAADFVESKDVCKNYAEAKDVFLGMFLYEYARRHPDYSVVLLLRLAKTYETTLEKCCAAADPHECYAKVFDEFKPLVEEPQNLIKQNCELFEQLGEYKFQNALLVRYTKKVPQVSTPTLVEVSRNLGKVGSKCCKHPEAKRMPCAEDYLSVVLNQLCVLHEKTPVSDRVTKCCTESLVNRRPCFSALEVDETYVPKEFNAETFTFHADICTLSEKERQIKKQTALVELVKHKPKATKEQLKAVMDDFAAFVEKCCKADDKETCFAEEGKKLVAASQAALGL
- Assay Remarks: HPLC on immobilized human serum albumin column (HPLC-HSA)
- Assay type: in vitro ADME
- Measurement Conditions: retention factor, acetate buffer pH 7.4/acetonitrile/methanol 85:10:5
The reply should be a number, written without any unit.

[
  {
    "Compound": "CN(C)CCC=C1c2ccccc2CCc2ccccc21 [amitriptyline]",
    "kHSA": 5.87
  },
  {
    "Compound": "CC(C)(C)NC[C@H](O)COc1nsnc1N1CCOCC1 [timolol]",
    "kHSA": 0.13
  }
]

Then this compound:
Prompt: Please give the measured kHSA for this compound: CCCCN1CCCCC1C(=O)Nc1c(C)cccc1C (stereo not drawn) [bupivacaine]
Response: 1.18

====

- Assay Remarks: HPLC on immobilized artificial membrane column (HPLC-IAM)
- Type: physicochemical
- Measurement Conditions: logarithm of retention factor, mobile phase pH 7.4
Assign labels as follows, please: True for log kIAM below 0.4; False for log kIAM equal to or exceeding 0.4.

[
  {
    "Molecule": "CCC1(c2ccccc2)C(=O)NCNC1=O",
    "Class Assignment": "True"
  },
  {
    "Molecule": "NC(=O)N1c2ccccc2CC(=O)c2ccccc21 [oxcarbamazepine]",
    "Class Assignment": "True"
  },
  {
    "Molecule": "NS(=O)(=O)c1cc2c(cc1Cl)NCNS2(=O)=O [hydrochlorotiazide]",
    "Class Assignment": "True"
  }
]

Prompt: Quick check: does CC(=O)CC(c1ccccc1)c1c(O)c2ccccc2oc1=O (stereo not shown) have log kIAM under 0.4?
Response: False

Prompt: Hello, I'm reviewing records and need to know if log kIAM of O=C(c1ccccc1)c1ccc2n1CCC2C(=O)O (stereo not shown) is below 0.4. Could you check?
Response: True

Prompt: In plain terms, does CCC[C@@H]1C[C@@H](C(=O)N[C@@H]([C@H]2O[C@H](SC)[C@H](O)[C@@H](O)[C@H]2O)[C@@H](C)O)N(C)C1 come in under 0.4 for log kIAM?
Response: False

Prompt: Does the reported log kIAM of the following molecule sit strictly below 0.4? CC(C)C[C@H](CN)CC(=O)O
Response: True

Prompt: Report whether reported log kIAM is lower than 0.4 (strictly) for CCS(=O)(=O)CCn1c([N+](=O)[O-])cnc1C
Response: True

Prompt: Criterion: log kIAM strictly below 0.4. Is it met by CC[C@@H](C(N)=O)N1CCCC1=O ?
Response: True

The reported numbers originate from paper PMC9913351.
